- assay info: self-splicing fitness, log relative to wild type (ln ratio); higher = more splicing; Tetrahymena group I intron in knt gene, E. coli kanamycin selection, DiMSum; sequences stand for … in CUCUCU…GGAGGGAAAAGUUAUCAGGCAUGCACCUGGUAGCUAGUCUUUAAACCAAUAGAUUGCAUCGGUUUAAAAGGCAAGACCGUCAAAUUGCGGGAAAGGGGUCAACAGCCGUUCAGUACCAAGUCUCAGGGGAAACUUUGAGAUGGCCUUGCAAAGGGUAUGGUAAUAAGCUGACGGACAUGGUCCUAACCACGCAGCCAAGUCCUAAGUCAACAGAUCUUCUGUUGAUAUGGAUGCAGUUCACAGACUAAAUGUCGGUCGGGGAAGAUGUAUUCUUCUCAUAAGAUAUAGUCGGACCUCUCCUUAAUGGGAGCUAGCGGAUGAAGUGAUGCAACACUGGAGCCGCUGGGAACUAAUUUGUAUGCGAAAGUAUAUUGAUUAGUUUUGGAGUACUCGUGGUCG;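 note: selection with 25 µg/mL kanamycin versus none on LB agar overnight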
- condition label: 37 °C
metric: self-splicing fitness (ln)
Field format: numeric only.

These recorded examples may help you get a feel for the data.
Entry ACAGAGCAAUAUUACGAGUC has what self-splicing fitness (ln)? -1.82

Same again, this time with UUAUAGCAAUAUUACGAUCA -0.403

Field entry: GGCGAGCAAUAUUACGAAAC -0.0615

Same thing, different sequence: GGGGAGCAAUAUUACGCCUG -0.491

Again, but for UCGCAGCAAUAUUACGCAAC -2.8

And for GGGGAGCAAUAUUACGUUAU ? -2.14

Would you mind doing GAAAAGCAAUAUUACGGCGC as well? 0.245

Next:
Consider the sequence shown here: AUGAAGCAAUAUUACGGUGU What is its recorded self-splicing fitness (ln)? -0.601

* * *

- assay info: self-splicing fitness, log relative to wild type (ln ratio); higher = more splicing; Tetrahymena group I intron in knt gene, E. coli kanamycin selection, DiMSum; sequences stand for … in CUCUCU…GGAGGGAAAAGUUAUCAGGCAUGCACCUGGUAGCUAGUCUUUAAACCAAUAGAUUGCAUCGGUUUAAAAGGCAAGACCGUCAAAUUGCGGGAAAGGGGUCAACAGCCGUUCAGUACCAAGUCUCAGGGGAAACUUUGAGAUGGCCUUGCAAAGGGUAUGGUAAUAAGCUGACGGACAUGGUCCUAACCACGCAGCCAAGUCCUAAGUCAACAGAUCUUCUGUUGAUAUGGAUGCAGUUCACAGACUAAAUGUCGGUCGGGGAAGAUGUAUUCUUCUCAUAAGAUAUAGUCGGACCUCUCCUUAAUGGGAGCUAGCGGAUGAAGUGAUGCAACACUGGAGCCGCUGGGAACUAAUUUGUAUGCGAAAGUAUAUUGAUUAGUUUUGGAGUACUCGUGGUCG
- condition label: 37 °C
Assign Y whenever self-splicing fitness (ln) does not fall below -2; assign N whenever it does.

Solved entries (count: 5):
Is the recorded value of self-splicing fitness (ln) equal to or greater than -2 for this sequence? CGCAAGCAAUAUUACGGGAC N

And for ACUAAGCAAUAUUACGACUG ? Y

Again, but for AAGAAGCAAUAUUACGGUGC Y

Another: AAGCAGCAAUAUUACGCAGU Y

How about GGACAGCAAUAUUACGUAAA ? Y

Next:
Check this sequence for self-splicing fitness (ln) at or above -2: UACCAGCAAUAUUACGAAAC N

Another sequence: UAGAAGCAAUAUUACGCUCU N

Similarly, GGCGAGCAAUAUUACGUUGU ? N

Another sequence to look at: GUAAAGCAAUAUUACGGCCG Y

Same again, this time with GCGCAGCAAUAUUACGGGGA Y

Taken from the supplement of paper PMC7877785.
